system: T1, PCSK9 protein inserted with biotin receiving peptide BP15 and His-tag: PCSK9-BP15-His6 (human, UniProt Q8NBP7 153-692; A8T644 31-152, biotin on the BP15 biotin receiving peptide (labeled during the expression))
T1 construct: also called WT PCSK9; PCSK9 WT
protocol-summary: competition ELISA, LDLR-FC coated, biotin PCSK9 + antibody
Quick reference: IC50 of the listed items.
metric-name: IC50 (µg/mL)

- binder: "h011-3187 (antibody, V domains shown) VH: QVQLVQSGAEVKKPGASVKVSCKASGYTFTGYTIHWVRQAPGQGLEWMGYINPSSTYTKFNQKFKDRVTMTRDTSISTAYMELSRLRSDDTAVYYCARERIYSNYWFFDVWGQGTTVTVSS VL: DIVMTQSPSSLSASVGDRVTITCKASQNVYTAVAWYQQKPGKSPKLLIYSASNRYTGVPSRFSGSGSGTDFTLTISSLQPEDFATYFCQQLSSSPETFGGGTKVEIK"
  metric-name: "IC50"
  value-reported: 0.666
- binder: "h011-3121 (antibody, V domains shown) VH: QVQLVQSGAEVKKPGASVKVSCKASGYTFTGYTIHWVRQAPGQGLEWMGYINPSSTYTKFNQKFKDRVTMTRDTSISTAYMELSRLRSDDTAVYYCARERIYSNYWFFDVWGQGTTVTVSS VL: DIVMTQSPSSLSASVGDRVTITCKASQNVYTAVAWYQQKPGKSPKLLIYSASNRYTGVPSRFSGSGSGTDFTLTISSLQPEDFATYFCQQLSSQPETFGGGTKVEIK"
  metric-name: "IC50"
  value-reported: 0.662
- binder: "h011-3195 (antibody, V domains shown) VH: QVQLVQSGAEVKKPGASVKVSCKASGYTFTGYTIHWVRQAPGQGLEWMGYINPSSTYTKFNQKFKDRVTMTRDTSISTAYMELSRLRSDDTAVYYCARERIFSNYWFFDVWGQGTTVTVSS VL: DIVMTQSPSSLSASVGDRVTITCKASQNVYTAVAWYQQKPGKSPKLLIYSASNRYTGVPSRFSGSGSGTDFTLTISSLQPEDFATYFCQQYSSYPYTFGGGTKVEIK"
  metric-name: "IC50"
  value-reported: 2.25
